Values were extracted from the supplement of paper PMC10307832.

- System: NCI-H727
- assay notes: relative viability (nuclei count vs DMSO), 5 days (fraction); higher = more cells survive
- condition: first compound 0.006325 µM
Reported relative viability by item:
readout kind: relative viability

[[record]]
compound = "CC(=O)O[C@@]12CO[C@@H]1C[C@H](O)[C@@]1(C)C(=O)[C@H](O)C3=C(C)[C@@H](OC(=O)[C@H](O)[C@@H](NC(=O)OC(C)(C)C)c4ccccc4)C[C@@](O)([C@@H](OC(=O)c4ccccc4)[C@H]21)C3(C)C [Docetaxel] + CC(=O)Nc1cccc(-n2c(=O)n(C3CC3)c(=O)c3c(Nc4ccc(I)cc4F)n(C)c(=O)c(C)c32)c1 [Trametinib] (partner 0.02 µM)"
readout_kind = "relative viability"
observed_measurement = 0.386

[[record]]
compound = "CC(=O)O[C@@]12CO[C@@H]1C[C@H](O)[C@@]1(C)C(=O)[C@H](O)C3=C(C)[C@@H](OC(=O)[C@H](O)[C@@H](NC(=O)OC(C)(C)C)c4ccccc4)C[C@@](O)([C@@H](OC(=O)c4ccccc4)[C@H]21)C3(C)C [Docetaxel] + CCNC(=O)c1noc(-c2cc(C(C)C)c(O)cc2O)c1-c1ccc(CN2CCOCC2)cc1 [Luminespib] (partner 0.01 µM)"
readout_kind = "relative viability"
observed_measurement = 0.353

[[record]]
compound = "CC(=O)O[C@@]12CO[C@@H]1C[C@H](O)[C@@]1(C)C(=O)[C@H](O)C3=C(C)[C@@H](OC(=O)[C@H](O)[C@@H](NC(=O)OC(C)(C)C)c4ccccc4)C[C@@](O)([C@@H](OC(=O)c4ccccc4)[C@H]21)C3(C)C [Docetaxel] + Cc1nc(NC(=O)N2CCC[C@H]2C(N)=O)sc1-c1ccnc(C(C)(C)C(F)(F)F)c1 [Alpelisib] (partner 2 µM)"
readout_kind = "relative viability"
observed_measurement = 0.298

[[record]]
compound = "CC(=O)O[C@@]12CO[C@@H]1C[C@H](O)[C@@]1(C)C(=O)[C@H](O)C3=C(C)[C@@H](OC(=O)[C@H](O)[C@@H](NC(=O)OC(C)(C)C)c4ccccc4)C[C@@](O)([C@@H](OC(=O)c4ccccc4)[C@H]21)C3(C)C [Docetaxel] + COc1cc2c(Oc3ccc(NC(=O)C4(C(=O)Nc5ccc(F)cc5)CC4)cc3F)ccnc2cc1OCCCN1CCOCC1 [Foretinib] (partner 0.25 µM)"
readout_kind = "relative viability"
observed_measurement = 0.507

[[record]]
compound = "CC(=O)O[C@@]12CO[C@@H]1C[C@H](O)[C@@]1(C)C(=O)[C@H](O)C3=C(C)[C@@H](OC(=O)[C@H](O)[C@@H](NC(=O)OC(C)(C)C)c4ccccc4)C[C@@](O)([C@@H](OC(=O)c4ccccc4)[C@H]21)C3(C)C [Docetaxel] + O=C(c1cc(Cc2n[nH]c(=O)c3ccccc23)ccc1F)N1CCN(C(=O)C2CC2)CC1 [Olaparib] (partner 8 µM)"
readout_kind = "relative viability"
observed_measurement = 0.645

[[record]]
compound = "CC(=O)O[C@@]12CO[C@@H]1C[C@H](O)[C@@]1(C)C(=O)[C@H](O)C3=C(C)[C@@H](OC(=O)[C@H](O)[C@@H](NC(=O)OC(C)(C)C)c4ccccc4)C[C@@](O)([C@@H](OC(=O)c4ccccc4)[C@H]21)C3(C)C [Docetaxel] + NC(=O)Nc1cc(-c2cccc(F)c2)sc1C(=O)N[C@H]1CCCNC1 [AZD7762] (partner 0.2 µM)"
readout_kind = "relative viability"
observed_measurement = 0.452

[[record]]
compound = "CC(=O)O[C@@]12CO[C@@H]1C[C@H](O)[C@@]1(C)C(=O)[C@H](O)C3=C(C)[C@@H](OC(=O)[C@H](O)[C@@H](NC(=O)OC(C)(C)C)c4ccccc4)C[C@@](O)([C@@H](OC(=O)c4ccccc4)[C@H]21)C3(C)C [Docetaxel] + C[C@@H](Oc1cc(-c2cnn(C3CCNCC3)c2)cnc1N)c1c(Cl)ccc(F)c1Cl [Crizotinib] (partner 1 µM)"
readout_kind = "relative viability"
observed_measurement = 0.298

[[record]]
compound = "CC(=O)O[C@@]12CO[C@@H]1C[C@H](O)[C@@]1(C)C(=O)[C@H](O)C3=C(C)[C@@H](OC(=O)[C@H](O)[C@@H](NC(=O)OC(C)(C)C)c4ccccc4)C[C@@](O)([C@@H](OC(=O)c4ccccc4)[C@H]21)C3(C)C [Docetaxel] + N=C(N)NC(=N)NCCc1ccccc1 [Phenformin] (partner 250 µM)"
readout_kind = "relative viability"
observed_measurement = 0.472

